Please go through the items and note down their EC50.
# Test system: CCRF-CEM
# assay_procedure: Effective concentration required to inhibit HIV-2 ROD in CEM cell culture
# Assay type: functional, cell-based
# condition_description: Homo sapiens

# substance_smiles, result
records = [
    ("CCOC(=O)NC(=O)NC1=CS(=O)(=O)O[C@@]12[C@@H](CO[Si](C)(C)C(C)(C)C)O[C@@H](n1cc(C)c(=O)n(C)c1=O)[C@@H]2O[Si](C)(C)C(C)(C)C", "> 2000 nM"),
    ("Cc1cn([C@@H]2O[C@H](CO[Si](C)(C)C(C)(C)C)[C@@]3(OS(=O)(=O)C=C3NC(=O)NC(=O)c3ccccc3)[C@H]2O[Si](C)(C)C(C)(C)C)c(=O)n(C)c1=O", "> 2000 nM"),
]

Shift focus to the following entry.
[ask] Could you share which EC50 value was measured for CCOC(=O)CN1C(=O)CN(C(=O)NC2=CS(=O)(=O)O[C@@]23[C@@H](CO[Si](C)(C)C(C)(C)C)O[C@@H](n2cc(C)c(=O)n(C)c2=O)[C@@H]3O[Si](C)(C)C(C)(C)C)C1=O ?
[reply] > 2000 nM

---

# Tested on: CCRF-CEM
# assay_procedure: Effective concentration required to inhibit HIV-1 IIIB in CEM cell culture
# Format: functional, cell-based
# condition_description: Homo sapiens
property_name: EC50

# compound, assay_system, result
records = [
    ("Cc1cn([C@@H]2O[C@@H]3COC4(O)CS(=O)(=O)O[C@@]34[C@H]2O)c(=O)[nH]c1=O (stereo not given in full)", "CCRF-CEM", "> 100 µM"),
    ("COC(=O)CC(=O)NC1=CS(=O)(=O)O[C@@]12[C@@H](CO[Si](C)(C)C(C)(C)C)O[C@@H](n1cc(C)c(=O)n(C)c1=O)[C@@H]2O[Si](C)(C)C(C)(C)C", "CCRF-CEM", "≥ 5 µM"),
    ("Cc1cn([C@@H]2O[C@H](CO[Si](C)(C)C(C)(C)C)[C@@]3(OS(=O)(=O)C=C3NCC(=O)O)[C@H]2O[Si](C)(C)C(C)(C)C)c(=O)n(C)c1=O", "CCRF-CEM", "> 10 µM"),
    ("CCNC(=O)NC1=CS(=O)(=O)O[C@@]12[C@@H](CO[Si](C)(C)C(C)(C)C)O[C@@H](n1cc(C)c(=O)n(C)c1=O)[C@@H]2O[Si](C)(C)C(C)(C)C", "CCRF-CEM", "> 2 µM"),
]

Shift focus to the following entry.
[ask] Could you share which EC50 value was measured for CCOC(=O)CNC(=O)NC1=CS(=O)(=O)O[C@@]12[C@@H](CO[Si](C)(C)C(C)(C)C)O[C@@H](n1cc(C)c(=O)n(C)c1=O)[C@@H]2O[Si](C)(C)C(C)(C)C ?
[reply] > 2 µM

---

# Tested on: HEL
# assay_procedure: Effective concentration required to inhibit HCMV AD-169 in HEL Cells
# Format: functional, cell-based
# condition_description: Homo sapiens
Rule: EC50 below 10 µM gives Condition met. Equal to or above 10 µM gives Condition not met.

As a guide, the following entries are already answered.
# substance_smiles, qualitative_label
measured = [
    ("Cc1cn([C@@H]2O[C@H](CO[Si](C)(C)C(C)(C)C)[C@@]3(OS(=O)(=O)C=C3NCCC(=O)OCc3ccccc3)[C@H]2O[Si](C)(C)C(C)(C)C)c(=O)n(C)c1=O", "Condition not met"),
    ("COC(=O)C(=O)NC1=CS(=O)(=O)O[C@@]12[C@@H](CO[Si](C)(C)C(C)(C)C)O[C@@H](n1cc(C)c(=O)n(C)c1=O)[C@@H]2O[Si](C)(C)C(C)(C)C", "Condition not met"),
    ("Cc1cn([C@@H]2O[C@@H]3COC(=O)[C@]3(OS(C)(=O)=O)[C@H]2O)c(=O)[nH]c1=O", "Condition not met"),
    ("Cc1cn([C@@H]2O[C@H](CO[Si](C)(C)C(C)(C)C)[C@@]3(OS(=O)(=O)C=C3NCC(=O)OCc3ccccc3)[C@H]2O[Si](C)(C)C(C)(C)C)c(=O)n(C)c1=O", "Condition not met"),
    ("Cc1cn([C@@H]2O[C@H](CO[Si](C)(C)C(C)(C)C)[C@@]3(OS(=O)(=O)C=C3NCC(=O)O)[C@H]2O[Si](C)(C)C(C)(C)C)c(=O)n(C)c1=O", "Condition not met"),
]

[ask] Regarding Cc1cn([C@@H]2O[C@H](CO[Si](C)(C)C(C)(C)C)[C@@]3(OS(=O)(=O)C=C3NC(=O)C(N)=O)[C@H]2O[Si](C)(C)C(C)(C)C)c(=O)n(C)c1=O , kindly confirm whether its EC50 is beneath 10 µM.
[reply] Condition met

[ask] Regarding C=C(C)C(=O)NC(=O)NC1=CS(=O)(=O)O[C@@]12[C@@H](CO[Si](C)(C)C(C)(C)C)O[C@@H](n1cc(C)c(=O)n(C)c1=O)[C@@H]2O[Si](C)(C)C(C)(C)C , kindly confirm whether its EC50 is beneath 10 µM.
[reply] Condition not met

[ask] Regarding COC(=O)CNC1=CS(=O)(=O)O[C@@]12[C@@H](CO[Si](C)(C)C(C)(C)C)O[C@@H](n1cc(C)c(=O)n(C)c1=O)[C@@H]2O[Si](C)(C)C(C)(C)C , kindly confirm whether its EC50 is beneath 10 µM.
[reply] Condition not met

[ask] Regarding COC(=O)CC(=O)NC1=CS(=O)(=O)O[C@@]12[C@@H](CO[Si](C)(C)C(C)(C)C)O[C@@H](n1cc(C)c(=O)n(C)c1=O)[C@@H]2O[Si](C)(C)C(C)(C)C , kindly confirm whether its EC50 is beneath 10 µM.
[reply] Condition met
